system under test: T1, human Siglec-5 expressed on human primary cells (human, UniProt O15389 17-551)
T1 construct: Endogenous receptor on human primary monocytes, dendritic cells, macrophages and neutrophils; also called CD170
T1 sequence: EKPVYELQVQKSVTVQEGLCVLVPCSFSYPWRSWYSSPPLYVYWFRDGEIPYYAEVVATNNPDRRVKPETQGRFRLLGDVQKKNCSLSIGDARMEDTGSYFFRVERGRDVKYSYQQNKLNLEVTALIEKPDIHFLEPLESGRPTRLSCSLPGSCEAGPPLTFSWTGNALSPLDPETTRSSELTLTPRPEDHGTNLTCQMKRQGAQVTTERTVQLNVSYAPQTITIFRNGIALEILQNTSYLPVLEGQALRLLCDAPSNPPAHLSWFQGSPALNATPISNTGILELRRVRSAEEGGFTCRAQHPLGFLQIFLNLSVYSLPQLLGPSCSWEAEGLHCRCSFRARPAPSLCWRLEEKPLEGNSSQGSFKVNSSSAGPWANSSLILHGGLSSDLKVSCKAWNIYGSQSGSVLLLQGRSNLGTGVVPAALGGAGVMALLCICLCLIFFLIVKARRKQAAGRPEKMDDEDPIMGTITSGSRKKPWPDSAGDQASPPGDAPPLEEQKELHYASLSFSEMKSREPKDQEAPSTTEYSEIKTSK
protocol notes: flow cytometry, human primary macrophages, 10 ug/ml mAb
assay readout: % Positive (%)
# output: bare number, implied unit %

binder	% Positive, %
anti-Siglec-5 monoclonal antibody 5H2 (antibody, IgG1, V domains shown) VH: EVQLQQSGPELVKPGASVKVSCKASGYSFTDYNMYWVKQSHGKSLEWIGYIDPYNGGTSYNQKFKGKATLTVDKSSSTAFMLLNSLTSEDSAVYYCALYYDYDGIPYWGQGTLVTVSA VL: DIVMTQSQKFMSTSVGDRVSVTCKASQNVGTNVAWYRQKPGQSPKALIYSASYRYNGVPDRFTGSGSGTDFTLTISNVQSEDLAEYFCQQYNSYPYTFGGGTKLEIK	93.5

input: For the binder anti-Siglec-5 monoclonal antibody 10F9 (antibody, IgG1, V domains shown) VH: EIQLQQSGPELVKPGASVKVSCKASGYSFTGYNMYWVKQSHGKSFEWIGYIDPYTGGTSYNQRFKGKATLTVDKSSSTAFMHLNSLTSEDSAIYYCALFYDYDGFPYWGQGTLVTVSA VL: DIVMTQSQKFMSTSVGDRVSVTCKASQNVDTNVAWYQQKPGQSPKALIYSASYRYSGVPDRFTGSGSGTDFTLTISNVQSEDLAEYFCQQYNSYPYTFGGGTKLEIK , give its reported % Positive.
output: 96.2

input: For the binder anti-Siglec-5 monoclonal antibody 9B1 (antibody, IgG1, V domains shown) VH: QVQLQQSGAELVKPGASVKLSCKASGYTFTEYTIHWVKQRSGQGLEWIGWFYPGSGSIKYNEKFKDKATLTADKSSSTVYMELSRLTSEDSAVYFCARQEEGGIGFDYWGQGTTLTVSS VL: DVLMTQTPLSLLVSLGDQASISCRSSQSIVHSNGNTYLEWYLQKPGQSPKLLIYKVSIRFSGVPDRFSGSGSGTDFTLKISRVEAEDLGVYYCFQGSHVPWTFGGGTKLEIK , give its reported % Positive.
output: 94

input: For the binder anti-Siglec-5 monoclonal antibody 8C3 (antibody, IgG1, V domains shown) VH: QVQLQQSGGGLVKPGTSVKLSCKASGYIFTEYIIHWVKQRSGQGLEWIGWFYPGIISIKYNEKFKDKATLTADKSSSTVYMELSRLTSEDSAVYFCAGHEGYDGAMDYWGQGTSVTVSS VL: DVLMTQTPLSLPVSLGDQASISCRCSQSIVHSNGNTYLEWYLQKPGQSPKLLIYRVSNRFSGVPDRFSGSGSGTDFTLKISRVEAEDLGVYYCFQGSHVPWTFGGGTKLEIK , give its reported % Positive.
output: 92

input: For the binder anti-Siglec-5 monoclonal antibody 9A5 (antibody, IgG1, V domains shown) VH: QVQLQQSGPELVEPGASVKVSCKASGYAFTSYNMYWVKQSHGKSLEWIGYIDPYNGGTYYDQKFKGRATLTVDKSSSTAHMHLNSLTSEDSAVYYCVFFYEYDGFPYWGQGTLVTVSA VL: DIVLTQSPTLMSASPGEKVTMTCSASSSVSYMYWYQQKPRSSPKPLIYLTSNLASGVPARFSGSGSGTSYSLTISSMEAEDAATYYCQQWSSNPLTFGAGTKLELK , give its reported % Positive.
output: 87.8

input: For the binder anti-Siglec-5 monoclonal antibody 10B6 (antibody, IgG1, V domains shown) VH: EIQLQQSGPELVKPGASVKVSCKASGYSFTDYNMYWVKQSHGKSLECFGYIDPYNGGPYYNQKFKGKATLTVDKSSSTAFMHLNSLTSEDSAVYYCAFYYGYYGVPYWGQGTLVTVSA VL: DIVMTQSQKFMSTSVGDRVSVTCKASHNVGTSVAWYQQKPGQSPKSLIYSASYRYSGVPDRFTGSGSGTDFTLTISNVQSEDLAEYFCQQYNSYPLTFGSGTKLEIK , give its reported % Positive.
output: 94.4
